Entry source: PubChem BioAssay AID1259407

- System: CCRIS mutagenicity, Ames/micronucleus/aberration tests
- assay comment: CCRIS mutagenicity studies
- assay conditions: Test System: AMES SALMONELLA TYPHIMURIUM; Strain/Indicator: TA98; Metabolic Activation: NONE; Method: STANDARD PLATE
Calls of active or inactive are those of the source. How the calls were made is not given here.
Use one of these outcomes when replying: true for active, false for inactive

Below are worked cases with known answers.
{"compound": "O=S(O)S(=O)(=O)O", "discrete label": "false"}
{"compound": "C#C[C@]1(O)CC[C@H]2[C@@H]3CCC4=CC(=O)CC[C@@H]4[C@H]3CC[C@@]21C", "discrete label": "false"}
{"compound": "O=NN1CCSC1C(O)C(O)C(O)C(O)CO (stereo not drawn)", "discrete label": "false"}
{"compound": "CC(C)=CCC/C(C)=C/CC/C(C)=C/C(=O)OCC(=O)[C@@]1(O)CC[C@H]2[C@@H]3CCC4=CC(=O)C=C[C@]4(C)[C@H]3[C@@H](O)C[C@@]21C", "discrete label": "false"}
{"compound": "CC1=C(N=O)CNc2c1nc1c(C)cccn21", "discrete label": "true"}

Task: Lab log entry: `Nc1ccc([N+](=O)[O-])c(O)c1` — outcome as called in the assay?
Result: false

Task: Lab log entry: `CCCCOCC(=O)O` — outcome as called in the assay?
Result: false

Task: Lab log entry: `BrCc1c2ccccc2c2ccc3cccc4ccc1c2c43` — outcome as called in the assay?
Result: true

Task: Lab log entry: `O=c1c(Cl)c(Cl)cnn1S(=O)(=O)c1ccccc1` — outcome as called in the assay?
Result: false

Task: Lab log entry: O=CC(O)C(O)C(O)C(O)COC1OC(COC2OC(CO)C(O)C(O)C2O)C(O)C(O)C1O (stereo not drawn) — outcome as called in the assay?
Result: false

Task: Lab log entry: CCCCCCCCCC/C=C/C1CC(=O)OC1=O (stereo not drawn) — outcome as called in the assay?
Result: false
